# experimental_protocol: in vivo;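 note: fasted 7-week-old rats, three per group, tissue sampled up to 8 h post-dose and urine collected over 0–24 h, with conjugates measured after alkaline hydrolysis, concentrations by LC-MS/MS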
# measurement_context: male, Crj:CD IGS, rat, po, 5 mg/kg
// values below are reported AUC(0-t)
measurement_type: AUC(0-t) (ng·h/mL)

> print(dat)
                                   molecule  value.measured
1  COc1c(N2C[C@H](C)[C@@](C)(N)C2)c(F)cc2c(=O)c(C(=O)O)cn([C@@H]3C[C@@H]3F)c12 (single isomer, unassigned) [Example 2]            1310
2  COc1c(N2CC(C)(N)C3(CC3)C2)c(F)cc2c(=O)c(C(=O)O)cn([C@@H]3C[C@@H]3F)c12 (some centres unmarked) [Example 9]            3080
